system: SK-MEL-2; assay: NCI tumour cell line growth inhibition, 48 h
Calls of active or inactive are those of the source. Rule as the data show it: active = GI50 up to about 1.1 µM and inactive = higher.
Possible outcomes: yes (1) (active), no (0) (inactive)

COMPOUND	TEST_SYSTEM	ASSIGNED_LABEL
CC(=O)N1C(=O)/C(=C\C(=O)c2ccc([N+](=O)[O-])cc2)c2ccccc21	SK-MEL-2	no (0)
O=C1c2cc(CCl)sc2C(=O)c2ccsc21	SK-MEL-2	yes (1)
COC(=O)c1cc(Cl)ccc1NC(=O)c1ccc([N+](=O)[O-])cc1	SK-MEL-2	no (0)
O=[N+]([O-])c1cc(-c2ccc([As](=O)(O)O)cc2)ccc1[As](=O)(O)O	SK-MEL-2	no (0)
Oc1ccc(/C=C/c2cc(O)cc3c2C(c2cc(O)cc(O)c2)C(c2ccc(O)c(O)c2)O3)cc1 (stereo not given)	SK-MEL-2	no (0)
CSc1nc(-c2ccc(Cl)cc2)c(C#N)c(=O)n1C1OC(COC(C)=O)C(OC(C)=O)C(OC(C)=O)C1OC(C)=O (stereo not given)	SK-MEL-2	no (0)
Clc1ccc(C(c2ccccc2Cl)C(Cl)Cl)cc1 (stereo not given) [MITOTANE]	SK-MEL-2	no (0)
CC(=O)c1c(O)nnc(-c2ccc(Cl)cc2)c1-c1ccc(Cl)cc1	SK-MEL-2	no (0)
O=C1C(O)=C(C(CCc2ccccc2)C2=C(O)C(=O)c3ccccc3C2=O)C(=O)c2ccccc21	SK-MEL-2	no (0)
Cc1c(C(=O)/C=C/c2ccccc2[N+](=O)[O-])[n+]([O-])c2ccccc2[n+]1[O-]	SK-MEL-2	no (0)
CCOC(=O)[C@H]1Nc2ccc(OC)cc2C2c3ccccc3CC21 (stereo not given in full)	SK-MEL-2	no (0)
COc1cc(C2C(Cl)C(=O)N2c2c(C)n(C)n(-c3ccccc3)c2=O)ccc1O (stereo not given)	SK-MEL-2	no (0)
O=C(C#Cc1ccccc1)NC/C=C/c1ccccc1	SK-MEL-2	no (0)
Cc1c(/N=N/c2ccc([N+](=O)[O-])cc2)nc2scc(-c3ccccc3)n12	SK-MEL-2	no (0)
NCC1CCN(c2nc3ccccc3c3c2CCCC3)CC1	SK-MEL-2	no (0)
CCOC(=O)C(Cc1ccc(OC(=O)c2ccc(OC)cc2)cc1)NC(=O)C(F)(F)F (stereo not given)	SK-MEL-2	no (0)
O=C1NC(c2ccccc2)N=C2Oc3ccccc3C=C12 (stereo not given)	SK-MEL-2	no (0)
CN1CN(c2ccccc2)C2(CCN(C3Nc4ccccc4O3)CC2)C1=O (stereo not given)	SK-MEL-2	no (0)
CCC1(N=[N+]=[N-])C(=O)Nc2cc(C)ccc2C1=O (stereo not given)	SK-MEL-2	no (0)
CCCN1CN(C(C(=O)N[C@@H]2C(=O)N3C(C(=O)O)=C(C)CSC23)c2ccc(O)cc2)CSC1=S (stereo not given in full)	SK-MEL-2	no (0)
COc1ccc(C(NS(=O)(=O)c2ccc(C)cc2)c2c(C(CBr)OC)c3ccccc3n2S(=O)(=O)c2ccccc2)cc1OC (stereo not given)	SK-MEL-2	no (0)
O=C1Nc2c(Cl)cc(Cl)cc2/C1=N/N=C/c1ccccc1O	SK-MEL-2	no (0)
CCOc1ccc(NC(=O)C(=O)CC(=O)c2sc(NNC(C)=O)nc2C)cc1	SK-MEL-2	no (0)
COC(=O)[C@H](Cc1ccccc1)NC(=O)c1ccc(CNC(=O)/C=C/c2cccc(Oc3ccccc3)c2)cc1	SK-MEL-2	no (0)
CC(=O)OCc1nnn2c1CCC2	SK-MEL-2	no (0)
Cc1ccc(O)c(-c2cc(-c3cccc(Br)c3)c(C#N)c(N)n2)c1	SK-MEL-2	no (0)
NN/C(=N\S(=O)(=O)c1ccc(-c2ccccn2)s1)Nc1ccc(Cl)cc1	SK-MEL-2	no (0)
CC1OC(OC2C(OC(=O)[C@]34CCC(C)(C)C[C@H]3C3=CC[C@@H]5[C@@]6(C)CC[C@H](OC7OC(CO)C(O)C(O)C7OC7OC(CO)C(O)C(O)C7O)C(C)(C)[C@@H]6CC[C@@]5(C)[C@]3(C)CC4)OCC(O)C2O)C(O)C(O)C1OC1OCC(O)C(O)C1O (stereo not given in full)	SK-MEL-2	no (0)
COc1ccc(CN2C(=O)C(=O)N(C)C2=O)c2ccccc12	SK-MEL-2	no (0)
c1cc(-c2ccsc2-c2ccsc2)cs1	SK-MEL-2	no (0)
CCN(CC)c1nc(N(C)C)c2ccccc2n1	SK-MEL-2	no (0)
O=C(O)CNC(=O)C(CSC(=O)OCC1c2ccccc2-c2ccccc21)NC(=O)CCC(NC(=O)OCC1c2ccccc2-c2ccccc21)C(=O)O (stereo not given)	SK-MEL-2	no (0)
C#Cc1cc(-c2nc3ccccc3s2)ccc1N	SK-MEL-2	no (0)
CC1(C)N=C(N)N=C(N)N1c1cccc(Cl)c1	SK-MEL-2	no (0)
COc1ccc(N2C(=O)C3c4[nH]c5ccc(OC)cc5c4C4CCC(C(C)C)CC4C3C2=O)cc1 (stereo not given)	SK-MEL-2	no (0)
CCN(CCCl)CCCCCNc1c2ccccc2nc2ccc(OC)cc12	SK-MEL-2	yes (1)
CC12c3c4cccc3Oc3cc(N)cc(c31)Oc1cc(N)cc(c12)O4	SK-MEL-2	no (0)
CC1=NN(C(=O)c2ccncc2)C(=O)C1/N=N/c1ccc(F)cc1 (stereo not given)	SK-MEL-2	no (0)
COC(=O)/C=C/COCC1C2CCC(=O)C21 (stereo not given)	SK-MEL-2	no (0)
CSc1nsc(-c2ccccc2)[s+]1.[O-][Cl+3]([O-])([O-])[O-]	SK-MEL-2	no (0)
